experiment: first dissolution test in DMSO or water; conditions: first dissolution test; amount for a 3M solution in 0.5 mL; DMSO, up to 15000 μL
measurement-label: Total volume of DMSO for dissolving the p-TSA derivatives (µL)
Your answer should be a plain number; it is taken to be in µL.

For Cc1ccc(S(=O)(=O)N2CCNCC2)cc1 , what is its reported Total volume of DMSO for dissolving the p-TSA derivatives?
680

Request the reported Total volume of DMSO for dissolving the p-TSA derivatives associated with Cc1ccc(S(=O)(=O)NC(CO)CO)cc1
500

What value of Total volume of DMSO for dissolving the p-TSA derivatives has been reported for the following molecule? COC(=O)NS(=O)(=O)c1ccc(C)cc1 [PTSA012]
680

Item Cc1ccc(S(=O)(=O)NC2CCNCC2)cc1.Cl has what recorded Total volume of DMSO for dissolving the p-TSA derivatives?
2000
